This collection of values is drawn from ChEMBL document CHEMBL3867473.

For each of the molecules below, state its fold change (FC).
Tested on: HT-22
Assay: Inhibition of glutamate-induced increase in JNK phosphorylation in mouse HT22 cells at 5 uM pretreated for 12 hrs followed by glutamate-challenge measured after 12 hrs by Western blotting assay (reference value: 1.84 +/- 0.11)
Type: cell-based

QUERY: I would be grateful if you could share the reported fold change (FC) for `O=C(/C=C/c1ccc(O)cc1)c1cc(O)c(O)cc1O` .
RESULT: 1.08

QUERY: Now consider `O=C(/C=C/c1ccc(O)c(O)c1)c1ccc(O)cc1O` and answer again.
RESULT: 0.73

QUERY: Now consider `O=C1/C(=C/c2ccc(O)c(O)c2)Oc2cc(O)ccc21` and answer again.
RESULT: 0.72

QUERY: Now consider `O=C(/C=C/c1ccc(O)cc1)c1ccc(O)cc1O` and answer again.
RESULT: 1

###

Molecular target: MAP kinase p38 (Mus musculus) (UniProt P47811+O08911+Q9WUI1+Q9Z1B7)
Experiment: Inhibition of glutamate-induced increase in p38 phosphorylation in mouse HT22 cells at 5 uM pretreated for 12 hrs followed by glutamate-challenge measured after 12 hrs by Western blotting assay (reference value: 2.46 +/- 0.96)
Assay type: cell-based
Conditions: HT-22
For each of the compounds below, state its fold change (FC).
Quick one: just the number, no unit, thanks!

QUERY: I would be grateful if you could share the reported fold change (FC) for `O=C(/C=C/c1ccc(O)cc1)c1cc(O)c(O)cc1O` .
RESULT: 1.21

QUERY: Now consider `O=C(/C=C/c1ccc(O)cc1)c1ccc(O)cc1O` and answer again.
RESULT: 1.03

QUERY: Now consider `O=C1/C(=C/c2ccc(O)c(O)c2)Oc2cc(O)ccc21` and answer again.
RESULT: 1.09

QUERY: Now consider `O=C(/C=C/c1ccc(O)c(O)c1)c1ccc(O)cc1O` and answer again.
RESULT: 0.75
